assay: soluble fraction after stress (log2 fold change); higher = more stays soluble; pooled small domains, quantitative proteomics; conditions: stress: 50 degC
soluble fraction (log2) of -0.1 or higher: MET. Under -0.1: NOT MET.

[in] Determine whether measured soluble fraction (log2) meets or exceeds -0.1 for HMSNHYETLGVEQTASVDEIKKAYRRLSLQYHPDRNTTSDAVGKFQKINDAHEILSDKQSRTEYDMQLK
[out] MET

[in] Determine whether measured soluble fraction (log2) meets or exceeds -0.1 for HMNADRIVGQTAKVIHPITPDEKGRVMVDNLDWAAAAQNRGESFEVGEEVSIVRIEGVTVYVQK
[out] MET

[in] Determine whether measured soluble fraction (log2) meets or exceeds -0.1 for HMALHDTLSYEEYLDLGLNGKADSAEKRELVAHALHLGRPNAKTLYKRLNMLQLNRKDVAALLEQ
[out] MET

[in] Determine whether measured soluble fraction (log2) meets or exceeds -0.1 for HMPELSITDADIIVAGGRGMGSAENFGLIRELAGLLGAAVGASRVVVDAEWVDQKHLIGQTGK
[out] NOT MET

[in] Determine whether measured soluble fraction (log2) meets or exceeds -0.1 for HMDTRKKLEQIFKLFDKTGTGMVNIDEFKSVLKLFMEEIDEKFGNYFIAYFDENGDGKIEFEEFADVVL
[out] MET

[in] Determine whether measured soluble fraction (log2) meets or exceeds -0.1 for HMSSPEAAEVQRLLKDGQHVQALKIIDESLARNPKDPQMRFRRGVALSMLDRKNEALAVFQKLVED
[out] MET

[in] Determine whether measured soluble fraction (log2) meets or exceeds -0.1 for HMENEIFVPKVFMDWYNKVDKSIKVFKAFNLIEKETDPRLKEWVEDNQDEFAKIWLGQLLPVV
[out] MET

[in] Determine whether measured soluble fraction (log2) meets or exceeds -0.1 for HMGIRAFDPEAFDERLKEFFSMIAPYKKLDTRSLQPHFPHHAKEVAERIRQLAEAGKIKVDGFYISEL
[out] NOT MET

[in] Determine whether measured soluble fraction (log2) meets or exceeds -0.1 for HMASAAHYEGVKTEGESDNDVITRVLTATGVTAEKDDIFVVKSLIADGKYSYTAYVYDGSVWAAMD
[out] MET

[in] Determine whether measured soluble fraction (log2) meets or exceeds -0.1 for HMSVFMIIVLKQHAPQEFVDMLMSSIKAKGVQIDVSKGARKTILGLVGNTSVIDREQIAGYEYVDKVIRV
[out] NOT MET

###

test: soluble fraction after stress (log2 fold change); higher = more stays soluble; pooled small domains, quantitative proteomics; conditions: stress: 50 degC
propertyName: soluble fraction (log2)
API note: the answer field is a bare number with no unit suffix.

Some entries whose results are on file:
[in] Recorded soluble fraction (log2) of HMGDTIFINNNFYVKHIVEFGETIDIISKIYDVSVNKILETNETSTKLYSGQSLFIPININV , please.
[out] -3.4

[in] Recorded soluble fraction (log2) of HMGASSLVGRSARVLQAVTDSDGRIKLAGETWSARLAAGATSTVGPGEEVRVIAIHGATAIVAPV , please.
[out] 0.0322

[in] Recorded soluble fraction (log2) of HMIPPGTITIEGAITKVPVFLDGKQIGTVPLTKEDVEPGKYRIRVLGVGRVITIDPGEKENVLFSGEDLGL , please.
[out] -0.142

[in] Recorded soluble fraction (log2) of HMNVNALIGQEGIVIKEINSGSNKIGQVKISGDTWSAVTTNDFTNAIPVGSNVKILKIDGVNLIVEPVY , please.
[out] -0.0724

[in] Recorded soluble fraction (log2) of HMTAVPADVETVTGFTALDRAGLDTLLARLGLAMDLEDLSFLQAYFRDTERRDPTLTEIRVVDTYWSDH , please.
[out] -1.38

[in] Recorded soluble fraction (log2) of HMFMPGTIIKQFRELRNYSQDYVSRKMGISQNAYSKIENNITQLTVTHVKQLSSILDVPIVELLR , please.
[out] -3.32

[in] Recorded soluble fraction (log2) of HMTIPNGTVVNGTVLEAREAGAYLVRVAGQTLTAQANLPLLVGQHFRAVWDSSGDIPVLRLSDAEQALLGK , please.
[out] 0.119

[in] Recorded soluble fraction (log2) of HMSLGSNISRLRAEKHLSQGDLAEALDVSRQSVSKWETDGSVPDLDKLVKLSRIFGVTLDELVTGTP , please.
[out] 0.0174

[in] Recorded soluble fraction (log2) of HMKEEVEILGGKATIYTNDYGVWQFRLWLTTDNKYVRKSLRTKVKDYAITEGEKLYIQIRSDIEKGIKYY , please.
[out] -1.13

[in] Recorded soluble fraction (log2) of HMYSIDNPPDWLKNLPKGAIRIGVEVFNQVLSKADDEDRARMAAWSAIKAKYEKADDGQWQPKAA , please.
[out] -0.0798

New cases:
[in] Recorded soluble fraction (log2) of HMGTSSAEIAAELRAQIFAGELRPGEMLPSAREITGTWNVAIATASRVHALLRSEGLATPVPGVGTVVAT , please.
[out] 0.0105
